Origin of values: PubChem BioAssay (NCI)

method-description: NCI Yeast Anticancer Drug Screen. Data for the cln2 rad14 strain (AID 165);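 also: 0% = growth equal to vehicle treated cultures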
assay-conditions: S. cerevisiae cln2 rad14 strain, at 50.0 µM (retest, dose inferred, filed as 5.0), stronger effect = higher value
About 79,000 compounds went through this panel and 15% of them were active in at least one assay; those are over-represented in the sample as a whole. Calls of active or inactive are those of the source. Rule as the data show it: active = growth inhibition above about 70%; inactive = the rest.
quantity: growth inhibition

Incoming: Identify measured growth inhibition associated with S=C1C(=Nc2ccccc2)N(c2ccccc2)/C(=N\c2cccc[n+]2Cc2ccccc2)N1c1ccccc1
Outgoing: 48% (inactive)

---

Listing: growth inhibition of selected compounds
method-description: NCI Yeast Anticancer Drug Screen. Data for the bub3 strain (AID 167)
assay-conditions: S. cerevisiae bub3 mutant strain, at 5.0 µM (retest, dose inferred, filed as 0.5), stronger effect = higher value
The panel holds about 79,000 compounds, 15% with a hit somewhere; the sample as a whole holds those more often.
Report only the number, with the unit % understood.

Incoming: Identify measured growth inhibition associated with CCOC1=Cc2c(oc3c(C(C)(C)C)cc(OCC)cc23)OC(C(C)(C)C)=C1
Outgoing: 32

Incoming: Identify measured growth inhibition associated with O=C1OCC2=C1C(c1ccc(Cl)cc1)c1cc3c(cc1O2)OCO3 (stereo not drawn)
Outgoing: 17

Incoming: Identify measured growth inhibition associated with CC1=C(C#N)C(=O)OC1(C)C(CC(=O)c1ccccc1)c1ccccc1 (stereo not drawn)
Outgoing: 2

Incoming: Identify measured growth inhibition associated with Fc1ccc2c(c1)Nc1cc(F)cc(F)c1S2
Outgoing: -3

Incoming: Identify measured growth inhibition associated with O=P(Nc1ccccc1)(OCc1ccccc1)OCc1ccccc1
Outgoing: 0
